Values compiled from patent US20240293559A1.

Target: SHP2 (Homo sapiens, UniProt Q06124)
Construct: endogenous in cells; host or cells: MV 411
Sequence (Q06124 whole entry): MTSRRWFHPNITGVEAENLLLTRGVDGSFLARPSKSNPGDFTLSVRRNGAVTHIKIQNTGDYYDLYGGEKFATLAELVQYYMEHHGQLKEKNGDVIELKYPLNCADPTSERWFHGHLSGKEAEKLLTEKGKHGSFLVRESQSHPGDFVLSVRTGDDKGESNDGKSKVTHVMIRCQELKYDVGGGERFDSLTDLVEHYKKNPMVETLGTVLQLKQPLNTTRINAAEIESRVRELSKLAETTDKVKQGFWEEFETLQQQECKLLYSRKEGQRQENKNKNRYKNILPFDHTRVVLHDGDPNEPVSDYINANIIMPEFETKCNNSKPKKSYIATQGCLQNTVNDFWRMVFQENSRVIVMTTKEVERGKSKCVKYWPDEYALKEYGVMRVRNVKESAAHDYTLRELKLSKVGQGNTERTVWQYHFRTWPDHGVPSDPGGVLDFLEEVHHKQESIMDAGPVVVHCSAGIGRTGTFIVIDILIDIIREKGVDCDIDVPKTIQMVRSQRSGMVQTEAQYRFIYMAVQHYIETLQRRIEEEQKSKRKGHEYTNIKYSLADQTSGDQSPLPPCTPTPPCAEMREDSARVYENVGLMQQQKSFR
Assay: SHP2 degradation in MV 411 cells by Western blot (median degradation concentration)
Format: cell-based
Settings: 24 hours with compound, SHP-2 antibody Western blot, concentration of the median degradation from exposure gray scale
From the text: Reagent: complete DMEM medium, Gibco products. Fetal bovine serum, manufactured byThermoFisher. Trypsin, manufactured byThermoFisher. The SHP-2 antibody is produced by CST. […] Measuring method: took the cells growing in the logarithmic phase, collected and suspended the cells in DMEM containing 10% fetal calf serum, gently blowed and beated the cells into single cell suspension by using a pipette, and counted the living cells under a microscope. […]
measuredMetric: DC50 (µM)

compound="CCOc1cc2oc(-c3ccc(OCCOCCOCCOCCOc4cccc5c4C(=O)N(C4CCC(=O)NC4=O)C5=O)cc3Cl)cc(=O)c2cc1-c1ccc(S(=O)(=O)N2CCOCC2)cc1 (stereo not drawn)" readingunit=µM readoutnumber=0.042
compound="CCOc1cc2oc(-c3ccc(OCc4cn(CC(=O)N5CCC(OC6CC(Oc7cccc8c7C(=O)N(C7CCC(=O)NC7=O)C8=O)C6)CC5)nn4)cc3Cl)cc(=O)c2cc1-c1cccc(C(C)=O)c1 (stereo not drawn)" readingunit=µM readoutnumber=0.055
